# credit: a melting point compilation (Tetko et al.; mined from patent text by program, amines drawn as free bases though some values may be those of a salt)

The molecules listed here are annotated with their melting point.

// worked examples, melting point included
molecule: O=C1c2ccccc2CCn2c(SC(F)(F)F)ccc21
melting point: 95 to 95.5 °C

molecule: COc1ccc2cc(N(C(C)=O)c3ccc(O)cc3)ccc2c1
melting point: 187 to 188 °C

molecule: c1ccn2nc(-c3ccncc3)nc2c1
melting point: 188 to 190 °C

// below: melting point requested for another molecule
Q) Input COc1cccc(C(=O)c2cccc(Cl)c2)c1 , output reported melting point.
A) 52 °C

----------
Reported melting point values for the following compounds.

compound: Cc1cc(C#N)cc(C)c1Oc1ncnc(Nc2ccc(C#N)cc2)n1
melting point: 248 to 250 °C
--
compound: COc1cc2c(c(Cl)c1Cl)C(=O)C(C1CCCC1)C2 (stereo not given)
melting point: 116 to 117 °C
--
compound: CC(C)(C)OC(=O)N[C@H](CCOc1ccc(C#N)cc1)C(=O)O
melting point: 132 to 146 °C
--
compound: CN(C)c1ccc(C(=O)C(F)c2cccc(Cl)c2)cc1 (stereo not given)
melting point: 90 to 92 °C
--
compound: COc1ccc(-c2cncc(OC3SCC(O)C(O)C3O)c2)cc1 (stereo not given)
melting point: 216 °C
--
compound: COC(=O)N(c1cc(C)ccc1C(=O)c1ccc(F)cc1)C(C)C
melting point: 92 to 94 °C
--
compound: Cc1cc2c([C@@H]3C[C@H]3CNC(=O)C(F)(F)F)cccn2n1 (relative stereo)
melting point: 136 to 138 °C
--
compound: Cc1ccc2cccc(OCc3c(Cl)ccc(S(=O)(=O)N4CCC[C@H]4C(=O)N(C)CCNC(=O)OC(C)(C)C)c3Cl)c2n1
melting point: 88 °C

Q) Tell me melting point reported for CSC1=NC(=O)C(=Cc2nc(C(C)(C)C)c(O)c(C(C)(C)C)n2)S1
A) 205 to 208 °C

Q) Answer with reported melting point of Cc1cn(C2C=CC(CO)O2)c(=O)[nH]c1=S (stereo not given)
A) 117 to 118 °C

----------
observation.type: melting point

compound: C[Si](C)(C)CCOC1OC(COC(=O)c2ccccc2)C(O)C(O)C1N=[N+]=[N-] (centres undefined)
result: 55 to 57 °C
//
compound: CCC(=O)C1=C(O)CC(c2ccc3sccc3c2)CC1=O (centres undefined)
result: 134 °C
//
compound: C=CCCCCCCCCC(O)CNC(=O)N(C)O (centres undefined)
result: 105 to 106 °C
//
compound: CC(O)c1onc(-c2ccccc2Cl)c1C(=O)c1nnn(Cc2cc(C(F)(F)F)cc(C(F)(F)F)c2)c1N1CCOCC1 (centres undefined)
result: 145 to 146 °C
//
compound: CC(CCC(=O)O)C1CCC2C3C(O)C(F)C4CC(O)CCC4(C)C3CCC12C (centres undefined)
result: 102 to 105 °C
//
compound: CCN(CC)CCOc1ccc(NC(=O)C#Cc2ccc(Cl)cc2Cl)cc1Cl
result: 98 to 100 °C
//
compound: CCc1[nH]n(C2CCCC2)c2nc(-c3cccc(OC4CCCCN(C)C4)c3)nc(=O)c1-2 (centres undefined)
result: 195 to 196 °C
//
compound: O=C(OC1CCCCCC1)c1ncn2c1[C@@H]1CCCN1C(=O)c1c(Cl)cccc1-2
result: 179 to 180 °C

Q) Given the compound O=C1C=C(O[C@@H]2c3cc(C(F)(F)C(F)(F)F)ccc3OC(CF)(CF)[C@H]2O)CC1 (relative stereo) , write its reported melting point.
A) 165 to 167 °C
